assayed.system: CBX1 chromodomain F50A (human, UniProt P83916 20-73, F50A)
Sequence (P83916 20-73 F45A): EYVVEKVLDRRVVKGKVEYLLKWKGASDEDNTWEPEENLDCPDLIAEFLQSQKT
method.description: fluorescence polarisation
Listing of entries alongside the reported Kd.
Numbers only; they are read as µM.

ARTKQTARKSTGGKA (trimethyl-lysine at 9; tetramethylrhodamine (TAMRA) label, position not stated) [TAMRA-labeled H3K9me3 peptide]: 63.5

Attention now shifts to the item below.
Consider the binder ARTKQTARKSTGGKA (pentenyl-lysine at 9; tetramethylrhodamine (TAMRA) label, position not stated) [TAMRA-labeled pentenyl-modified H3K9 peptide] and give its measured Kd.
14.1
